- measurement_parameters: buffer; pH 7.4; 200.0 µM
// log10(solubility kinetic) lookup, one value per entry
Units before log transform: µg/mL; reported quantity: solubility kinetic; transform: log10.

                                   compound            outcome_measure  experimental_result
0          O=C(Nc1cccc2cccnc12)c1cccc(Cl)c1  log10(solubility kinetic)                 0.18
1  CCN(CC)S(=O)(=O)c1ccc(NC(=O)c2cnccn2)cc1  log10(solubility kinetic)                 0.89
2  CC1CC1C(=O)OCC(=O)NC(=O)NC12CC3CC(CC(C3)C1)C2 (stereo not drawn)  log10(solubility kinetic)                 1.35
3  CS(=O)(=O)N1CCCC(C(=O)Nc2ccccc2)C1 (stereo not drawn)  log10(solubility kinetic)                 1.63
4  CCNC(=S)NC1CC2CCCC(C1)N2Cc1ccc(C)cc1 (stereo not drawn)  log10(solubility kinetic)                 1.68

Next compound, please.
Notebook: C=C[C@]1(C)C[C@@H](OC(=O)CSCCN(CC)CC)[C@]2(C)C(C)CC[C@]3(CCC(=O)[C@H]32)[C@@H](C)[C@@H]1O (stereo partly drawn) , log10(solubility kinetic) read as 1.81

* * *

- measurement_parameters: buffer; pH 7.4; 200.0 µM
Measured solubility kinetic, listed per entry for reference.

A selection of reference data follows.
                                   compound  experimental_result
0  Cc1ccc(NC(=O)c2cc(-c3ccccc3)n(CCCN3CCOCC3)c2C)cc1           19.9 µg/mL
1    COc1nc(-c2ccccc2)ncc1S(=O)(=O)c1ccccc1          < 0.3 µg/mL
2  CC(=O)N1CCN(CC(=O)Nc2ccc(C)c(F)c2)CC1.Cl           46.8 µg/mL

Form: compound = CN1C(=O)C(O)(CC(=O)/C=C/c2ccco2)c2ccccc21 (centres undefined) ; solubility kinetic = > 44.6 µg/mL

// recorded solubility kinetic for "CC(=O)Nc1sc(C)c(C)c1C(=O)OCC(=O)Nc1cccc(C)c1" : 1.1 µg/mL

Memo: "O=C(COC(=O)CN1C(=O)NC2(CCCCC2)C1=O)Nc1cc(F)ccc1F" , reported solubility kinetic: > 59.3 µg/mL

solubility kinetic in this record for "O=C(Nc1ccc(Cl)c(S(=O)(=O)N2CCOCC2)c1)C1CCCC1" : > 55.9 µg/mL

GET /value?item= "CC(=O)N=c1scc(-c2ccccc2)n1-c1cccc(O)c1" &field=solubility kinetic returns 2.6 µg/mL

Record "O=C(COC(=O)CCC(=O)c1ccc(F)cc1)NCc1ccc(Cl)cc1" . Reported solubility kinetic: 10.6 µg/mL

response.value for "O=S(=O)(Nc1ccc(Br)cc1)N1CCOCC1" (field: solubility kinetic) = > 48.2 µg/mL

// solubility kinetic lookup, compound = NC1=NC(=O)CC(C(=O)Nc2cccc3ccccc23)S1 (centres undefined) , result: > 44.9 µg/mL

Just so you know, measured solubility kinetic for "CCNC(=S)Nc1ccc(Cl)c([N+](=O)[O-])c1" came out at > 39 µg/mL

Lookup result for "COc1ccc(CNC(=O)Cn2cncn2)cc1OC" ; measured solubility kinetic: > 41.4 µg/mL

Noted for "Clc1ccc(-c2cn3cc(Cl)ccc3n2)cc1" : its solubility kinetic reads < 0.3 µg/mL

Given item CC1CCCCN1C(=O)CCn1c(=S)oc2ccccc21 (centres undefined) , the value recorded as its solubility kinetic is 43.9 µg/mL

The compound identified as "Cc1cccn2c(=O)c(/C=C(\C#N)C(N)=O)c(Oc3ccccc3)nc12" registered its solubility kinetic at 7.9 µg/mL

Lookup result for Cc1ccccc1NC(=O)C(C)SCc1ccccc1 (centres undefined) ; measured solubility kinetic: > 42.8 µg/mL

Value of solubility kinetic reported for the compound "COC(=O)C1=C(C)N(Cc2ccc(OC)cc2)C(=O)/C1=C\c1ccco1" is 7.7 µg/mL

Form field solubility kinetic, entry "Cc1cc(C)c(NC(=O)CC(=O)c2ccccc2)c(Cl)c1" : 3.5 µg/mL

So for "CN(C(=O)CSc1cccc[n+]1[O-])c1ccccc1" , the logged solubility kinetic turned out to be 35.5 µg/mL
